We begin with a simple list: items and their reported inhibition.
# assayedTarget: CSNK2A1 (human)
# assayText: radiometric filter-binding kinase assay
# recordedConditions: compound 100.0 µM; ATP 5 µM
Could you give me the number in %? Just the number is fine.

Check out these entries, answers already filled in.
compound	assayedTarget	valueMeasured
Nc1cnc2c(-c3c(F)cccc3F)cccn2c1=O	CSNK2A1 (human)	94
Nc1nc2cnc(-c3ccccc3)cn2n1	CSNK2A1 (human)	55
CC1CN(c2nc3ccccn3c(=O)c2N)CC(C)O1 (stereo unspecified)	CSNK2A1 (human)	97
CC(C)(C)Nc1c(C2CC2)nc2[nH]cnn12	CSNK2A1 (human)	9
CC(C)(C)Nc1c(COCc2ccccc2)nc2[nH]cnn12	CSNK2A1 (human)	5

Response field inhibition (CSNK2A1 (human)) for item COc1ccc(NC(=S)Nc2cnc3[nH]cnn3c2=O)cn1 : 28

Response field inhibition (CSNK2A1 (human)) for item O=c1cc(-c2ccccc2F)nc2[nH]ccn12 : 20

Response field inhibition (CSNK2A1 (human)) for item CC(=O)Nc1nc2cnc(-c3c(C)cccc3C)cn2n1 : 0

Response field inhibition (CSNK2A1 (human)) for item Cc1cccc(C)c1-c1cn2nc(N)nc2cn1 : 17

Response field inhibition (CSNK2A1 (human)) for item COc1ccc(-c2cc3c(=O)[nH]cnc3s2)cc1OC : 31

Response field inhibition (CSNK2A1 (human)) for item CC(=O)Nc1nc2cnc(-c3ccccc3)cn2n1 : 11
